Data provenance: patent US20190112365A1

In this section, each of the binders is paired with its reported koff.
target: T1, Human Tau 2N4R, wild type, recombinant full length (human, UniProt P10636 2-758); experiment: SPR BIAcore, mAb captured by anti-human IgG, Tau flowed, 1:1 Langmuir
T1 construct: Full length 2N4R isoform; monomer in SPR and ELISA; heparin-induced aggregates or seeds in the functional assays; also called Tau441; Tau-441
T1 sequence (P10636 other isoform, or with tags, fused parts or gaps limits assumed): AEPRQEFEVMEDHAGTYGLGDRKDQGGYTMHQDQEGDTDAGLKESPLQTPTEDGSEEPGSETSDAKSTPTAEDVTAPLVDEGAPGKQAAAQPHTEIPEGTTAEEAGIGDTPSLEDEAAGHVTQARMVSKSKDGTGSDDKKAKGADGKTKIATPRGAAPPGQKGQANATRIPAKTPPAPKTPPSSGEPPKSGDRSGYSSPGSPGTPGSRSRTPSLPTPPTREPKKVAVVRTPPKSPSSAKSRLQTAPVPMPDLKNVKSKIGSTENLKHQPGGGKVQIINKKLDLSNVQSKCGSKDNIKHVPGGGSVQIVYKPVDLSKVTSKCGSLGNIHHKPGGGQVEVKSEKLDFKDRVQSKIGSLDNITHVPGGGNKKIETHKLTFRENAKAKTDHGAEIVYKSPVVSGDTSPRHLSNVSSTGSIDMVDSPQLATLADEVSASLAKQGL
Respond numerically; units are s⁻¹ and should not be typed.

Recorded results for 5 binders are shown here.
BINDER | RESULT NUMBER
7G6-HCzu19-LCzu12 (antibody, human IgG1, kappa, V domains shown, humanized, human IgG1 kappa) VH: EVQLLESGGGLVQPGGSLRLSCAASGYTFTTYWITWVRQAPGKGLEWVSDIYPGSSICNYADKFKGRFTISRDNSKNTLYLQMNSLRAEDTAVYYCAREDGYDAWFAYWGQGTLVTVSS VL: DVQMTQSPSSLSASVGDRVTITCRSSQSILHSNGNTYLEWYQQKPGKAPKLLICKVSNRFSGVPSRFSGSGSGTDFTLTISSLQPEDFATYYCFQGSHVPFTFGQGTKLEIKR | 0.000152
7G6-HCzu18-LCzu12 (antibody, human IgG1, kappa, V domains shown, humanized, human IgG1 kappa) VH: EVQLLESGGGLVQPGGSLRLSCAASGYTFTTYWITWVRQAPGKGLEWVSDIYPGSSICNYNEKFKSRFTISRDNSKNTLYLQMNSLRAEDTAVYYCAREDGYDAWFAYWGQGTLVTVSS VL: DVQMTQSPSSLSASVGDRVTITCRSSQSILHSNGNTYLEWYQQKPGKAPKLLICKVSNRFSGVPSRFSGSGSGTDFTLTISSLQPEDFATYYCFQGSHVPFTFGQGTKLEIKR | 0.000128
7G6-HCzu17-LCzu12 (antibody, human IgG1, kappa, V domains shown, humanized, human IgG1 kappa) VH: EVQLLESGGGLVQPGGSLRLSCAASGYTFTTYWITWVRQAPGKGLEWVSDIYPGSSICNYNEKFKSRFTISVDNSKNTLYLQMNSLRAEDTAVYYCAREDGYDAWFAYWGQGTLVTVSS VL: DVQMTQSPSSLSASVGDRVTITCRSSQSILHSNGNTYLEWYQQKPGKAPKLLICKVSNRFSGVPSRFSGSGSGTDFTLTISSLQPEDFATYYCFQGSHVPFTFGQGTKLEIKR | 0.000124
7G6-HCzu11-LCzu11 (antibody, human IgG1, kappa, V domains shown, humanized, human IgG1 kappa) VH: EVQLLESGGGLVQPGGSLRLSCAASGYTFTTYWITWVRQAPGKGLEWVSDIYPGSSICNYNEKFKSRFTISRDNSKNTLYLQMNSLRAEDTAVYYCAKEDGYDAWFAYWGQGTLVTVSS VL: DIQMTQSPSSLSASVGDRVTITCRSSQSILHSNGNTYLEWYQQKPGKAPKLLIYKVSNRFSGVPSRFSGSGSGTDFTLTISSLQPEDFATYYCFQGSHVPFTFGQGTKLEIKR | 0.000175
7G6-HCzu16-LCzu12 (antibody, human IgG1, kappa, V domains shown, humanized, human IgG1 kappa) VH: EVQLLESGGGLVQPGGSLRLSCAASGYTFTTYWITWVRQAPGKGLEWVSDIYPGSSICNYNEKFKSRFTISVDNSKNTAYLQMNSLRAEDTAVYYCAREDGYDAWFAYWGQGTLVTVSS VL: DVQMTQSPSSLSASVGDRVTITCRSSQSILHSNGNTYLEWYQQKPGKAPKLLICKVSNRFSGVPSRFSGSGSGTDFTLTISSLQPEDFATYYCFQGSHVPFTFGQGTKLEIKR | 0.000174

Memo: 7G6-HCzu12-LCzu15 (antibody, human IgG1, kappa, V domains shown, humanized, human IgG1 kappa) VH: EVQLLESGGGLVQPGGSLRLSCAASGYTFTTYWITWVRQAPGKGLEWVGDIYPGSSICNYNEKFKSRFTISVDNSKSTAYLQMNSLRAEDTAVYYCAREDGYDAWFAYWGQGTLVTVSS VL: DVQMTQSPSSLSASVGDRVTITCRSSQSILHSNGNTYLEWYQQKPGKAPKLLISKVSNRFSGVPSRFSGSGSGTDFTLTISSLQPEDFATYYCFQGSHVPFTFGQGTKLEIKR , reported koff: 0.000141
